B1: KRT15 (parent)
chain: SNFHINVEESVDGQVVSSHKREI

Variants of: B1
ASSAY_NAME: protein stability index of a GFP-peptide fusion (GPS, HEK-293T) (PSI 1-6); higher = more stable;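 further: lentivirally expressed fusions sorted by FACS into six bins by GFP to DsRed ratio, PSI derived from sequencing read proportions per bin multiplied by bin number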
DETAILS: c terminus: native
Label No if protein stability index falls below 3; label Yes in every other case.

The following variants have reported results that may help.
INSERT INTO measurements (mutant, discrete_label) VALUES
  ('I5D', 'Yes'),
  ('R21N', 'Yes'),
  ('E22Q', 'Yes'),
  ('Q14S', 'No'),
  ('V7E', 'Yes'),
  ('G13N', 'No'),
  ('G13D', 'No'),
  ('V15D', 'No'),
  ('K20A', 'Yes'),
  ('N2S', 'No');

Does the reported protein stability index for V11H fall at or above the 3 mark?
No

Does the reported protein stability index for E22M fall at or above the 3 mark?
Yes

Does the reported protein stability index for I5R fall at or above the 3 mark?
No

Does the reported protein stability index for E22Y fall at or above the 3 mark?
Yes
